Biological target: vanilloid receptor VR1 (capsaicin receptor) (Rattus norvegicus)
Construct: isolated from the spinal cord of male Sprague Dawley rats (breeder: Charles River Deutschland, 32699 Extertal) and used for preparation of the membrane; from tissue; host or cells: rat spinal cord (cervical region and one third of the thoracic region) membranes
Sequence (O35433 whole entry): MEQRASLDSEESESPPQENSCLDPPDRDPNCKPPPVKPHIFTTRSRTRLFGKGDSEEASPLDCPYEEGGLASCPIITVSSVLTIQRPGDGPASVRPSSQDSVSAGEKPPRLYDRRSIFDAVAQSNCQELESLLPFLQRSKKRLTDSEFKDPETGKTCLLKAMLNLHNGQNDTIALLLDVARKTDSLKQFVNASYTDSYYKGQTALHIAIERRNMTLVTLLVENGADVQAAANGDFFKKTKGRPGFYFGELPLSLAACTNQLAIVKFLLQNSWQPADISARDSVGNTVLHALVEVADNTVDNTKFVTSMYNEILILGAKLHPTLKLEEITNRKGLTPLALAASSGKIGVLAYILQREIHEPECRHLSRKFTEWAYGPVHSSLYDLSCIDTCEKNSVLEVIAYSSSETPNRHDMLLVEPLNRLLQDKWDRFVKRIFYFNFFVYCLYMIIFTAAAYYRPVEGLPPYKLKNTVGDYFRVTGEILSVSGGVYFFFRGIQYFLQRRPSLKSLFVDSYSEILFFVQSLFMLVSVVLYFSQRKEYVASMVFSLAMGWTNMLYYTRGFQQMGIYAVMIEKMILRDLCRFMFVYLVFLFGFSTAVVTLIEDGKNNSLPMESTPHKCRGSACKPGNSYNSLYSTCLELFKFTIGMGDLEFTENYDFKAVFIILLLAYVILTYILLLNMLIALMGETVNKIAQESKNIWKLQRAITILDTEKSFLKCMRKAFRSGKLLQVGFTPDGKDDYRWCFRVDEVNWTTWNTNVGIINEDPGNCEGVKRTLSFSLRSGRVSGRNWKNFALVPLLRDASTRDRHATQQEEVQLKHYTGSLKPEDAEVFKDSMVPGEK
Test: Determination of affinity for vanilloid receptor VR1 ([3H] resiniferatoxin binding, rat spinal cord membranes)
Design: species or system Sprague Dawley rats
pIC50 listing for selected compounds.
Keep in mind that pIC50 stands for -log10 of concentration in molar terms.

COc1cc(CNC(=O)CCCCCCC(C)C)ccc1O [Dihydrocapsaicin]; 5.57

Data request: Please give the measured pIC50 for this compound: `CC1(C)C[C@H]2C=C(C=O)[C@]3(C=O)C[C@]3(C)[C@H]2C1`
Data returned: 5.14

Data request: Form field: reported pIC50 of `C=C(C)[C@]12C[C@@H](C)[C@@]34O[C@](Cc5ccccc5)(O[C@@H]1[C@@H]3C=C(COC(=O)Cc1ccc(O)c(OC)c1)C[C@]1(O)C(=O)C(C)=C[C@@H]41)O2`
Data returned: 9.68

====

Biological target: vanilloid receptor VR1 (capsaicin receptor) (Rattus norvegicus)
Construct: isolated from the spinal cord of male Sprague Dawley rats (breeder: Charles River Deutschland, 32699 Extertal) and used for preparation of the membrane; from tissue; host or cells: rat spinal cord (cervical region and one third of the thoracic region) membranes
Assay: Determination of affinity for vanilloid receptor VR1 ([3H] resiniferatoxin binding, rat spinal cord membranes)
Design: species or system Sprague Dawley rats
Conditions: [3H] RTX 100 pM, rat spinal cord membranes; comparison substances; read-out: IC50 (VR-1 receptor affinity, reference data)
Description: This method was developed on the basis of the publication by Acs et al., J. Neurochem. 65, 301-308 (1995). The corresponding description is hereby introduced as a reference and is deemed to be part of the disclosure. […] Incubation is performed in the water bath for one hour at 37° C. […] The filters are transferred into scintillation counter vessels, each is combined with a 10 ml portion of “Ready Protein” scintillating material, and the vessels are closed with screw caps. […]
READOUT: IC50 (µM)
Answer with a number only, understood to be in µM.

Data request: Form entry - test system: vanilloid receptor VR1 (capsaicin receptor) (Rattus norvegicus); read-out: IC50; compound: CCCCC/C=C\C/C=C\C/C=C\C/C=C\CCCC(=O)NCc1ccc(O)c(OC)c1 [Arvanil]
Data returned: 8.9

====

Molecular target: vanilloid receptor (VR1) (Rattus norvegicus)
Construct: expressed in transfected cells; host or cells: CHO K1 cells (ECACC)
Experiment: Functional investigations on vanilloid receptor (VR1): Ca2+ influx FLIPR assay in CHO K1 cells stably transfected with the VR1 gene
Format: cell-based, rats
Settings: CHO-K1; read-out: % Inhibition [1]
Structures can show the parent of a compound that is named as a salt.
READOUT: inhibition at 10 µM
Answer format: number, then unit.

CC(C)(C)CC(C)(C)Nc1c(-c2ccoc2)nc2ccccn12 [Example 4, hydrochloride]; 44.1%

Data request: Tell me reported inhibition at 10 µM for Cc1ccn2c(NC(C)(C)CC(C)(C)C)c(-c3ccsc3)nc2c1.Cl [Example 3, hydrochloride] , tested with vanilloid receptor (VR1) (Rattus norvegicus).
Data returned: 65%

Data request: vanilloid receptor (VR1) (Rattus norvegicus) / inhibition at 10 µM / CC(C)(C)CC(C)(C)Nc1c(-c2ccsc2)nc2ccccn12 [Example 2, hydrochloride] : value?
Data returned: 32.2%

Data request: Which inhibition at 10 µM is reported with vanilloid receptor (VR1) (Rattus norvegicus) for this entry: Cc1ccn2c(NC(C)(C)CC(C)(C)C)c(-c3ccoc3)nc2c1.Cl [Example 5, hydrochloride] ?
Data returned: 80.7%

====

Target: vanilloid receptor (VR1) (Rattus norvegicus, UniProt O35433)
Construct: expressed in transfected cells; host or cells: CHO K1 cells (ECACC)
Test: Functional investigations on vanilloid receptor (VR1): Ca2+ influx FLIPR assay in CHO K1 cells stably transfected with the VR1 gene
Assay type: cell-based, rats
Settings: method (b); 10 μM; 1–3 measurements
READOUT: VR1 activation in rats (10 μM) [%] (%)
State the answer as a number, implicitly in %.

CCCCCC(C)(C)Nc1c(-c2ccoc2)nc2cc(C)ccn12.Cl; 52.1
CCCCCCCCNc1c(-c2ccoc2)nc2cc(C)ccn12.Cl; 36.9
CCCCCCC(C)(C)Nc1c(-c2ccsc2)nc2cc(C)ccn12.Cl; 45.3
CCCCCC(C)(C)Nc1c(-c2ccsc2)nc2cc(C)ccn12.Cl; 68.9
CCCCCCC(C)(C)Nc1c(-c2ccoc2)nc2cc(C)ccn12.Cl; 49

Consider the additional molecule presented here.
Data request: Given the molecule `CCCCCCCNc1c(-c2ccoc2)nc2cc(C)ccn12.Cl` , what is its reported VR1 activation in rats (10 μM) [%]?
Data returned: 50.3

====

Target: cannabinoid receptor 1 (CB1) (Rattus norvegicus)
Construct: Tissue: rat cerebellum; from tissue; host or cells: rat cerebellum membranes
Sequence (P20272 whole entry): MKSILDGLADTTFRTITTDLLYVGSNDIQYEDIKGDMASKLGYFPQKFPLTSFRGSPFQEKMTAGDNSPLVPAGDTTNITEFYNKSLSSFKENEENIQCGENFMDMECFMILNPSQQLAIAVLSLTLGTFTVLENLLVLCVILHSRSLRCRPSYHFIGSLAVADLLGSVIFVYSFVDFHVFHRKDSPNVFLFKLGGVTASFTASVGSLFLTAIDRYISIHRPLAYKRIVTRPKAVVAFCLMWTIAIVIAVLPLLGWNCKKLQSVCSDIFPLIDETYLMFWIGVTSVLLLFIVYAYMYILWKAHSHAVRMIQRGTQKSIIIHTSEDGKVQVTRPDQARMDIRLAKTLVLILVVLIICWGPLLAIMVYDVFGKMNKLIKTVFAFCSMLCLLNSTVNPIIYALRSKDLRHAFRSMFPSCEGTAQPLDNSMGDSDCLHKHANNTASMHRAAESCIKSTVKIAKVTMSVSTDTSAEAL
Assay: Determination of affinity for cannabinoid receptor 1 (CB1) ([3H] WIN55,212-2 binding, rat cerebellum membranes)
Set-up: species or system Sprague Dawley rats
Conditions: method (c)
Structures can show the parent of a compound that is named as a salt.
READOUT: inhibition at 10 µM (%)
Reply with just the number (in %).

Sample answers from the record:
CC(C)(C)CC(C)(C)Nc1c(-c2ccsc2)nc2ccccn12 [Example 2, hydrochloride]; 47
Cc1ccn2c(NC(C)(C)CC(C)(C)C)c(-c3ccsc3)nc2c1.Cl [Example 3, hydrochloride]; 35.5
CC(C)(C)CC(C)(C)Nc1c(-c2ccoc2)nc2ccccn12 [Example 4, hydrochloride]; 35

Data request: API: value(readout= inhibition at 10 µM, system= cannabinoid receptor 1 (CB1) (Rattus norvegicus), query= Cc1cc(C)n2c(NC(C)(C)CC(C)(C)C)c(-c3ccsc3)nc2c1 [Example 1, hydrochloride] )
Data returned: 43

Data request: Query the reported inhibition at 10 µM for cannabinoid receptor 1 (CB1) (Rattus norvegicus); item: Cc1ccn2c(NC(C)(C)CC(C)(C)C)c(-c3ccoc3)nc2c1.Cl [Example 5, hydrochloride]
Data returned: 32.7

====

Molecular target: vanilloid receptor (VR1) (Rattus norvegicus, UniProt O35433)
Construct: expressed in transfected cells; host or cells: CHO K1 cells (ECACC)
Assay: Functional investigations on vanilloid receptor (VR1): Ca2+ influx FLIPR assay in CHO K1 cells stably transfected with the VR1 gene
Assay type: cell-based, rats
Details: CHO-K1; method (b); 10 μM; 1–3 measurements; read-out: VR1 inhibition in rats (10 μM) [%]
Description: (b) Functional Investigations on Vanilloid Receptor (VR1) The agonistic or antagonistic action of the substances to be investigated on the vanilloid receptor (VR1) may be determined with the following assay. According to this assay, the influx of Ca^2+ through the channel is quantified with the assistance of a Ca^2+-sensitive dye (type Fluo4, Molecular Probes Europe BV, Leiden, Netherlands) in a Fluorescent Imaging Plate Reader (FLIPR, Molecular Devices, Sunnyvale, USA). […]
Structures can show the parent of a compound that is named as a salt.
READOUT: inhibition at 10 µM (%)
Respond numerically; units are % and should not be typed.

CCCCCCCC(C)(C)Nc1c(-c2ccoc2)nc2cc(C)ccn12 [Example 16, hydrochloride]; 31.8
CCCCCCCCCNc1c(-c2cccnc2)nc2cc(C)ccn12 [Example 23, hydrochloride]; 34.4
CCCCCCCNc1c(-c2ccoc2)nc2ccccn12 [Example 6, hydrochloride]; 66.4
CCCCCCCCNc1c(-c2ccncc2)nc2cc(C)ccn12 [Example 25, hydrochloride]; 33.2
CCCCCC(C)(C)Nc1c(-c2ccoc2)nc2cc(C)ccn12.Cl [Example 14, hydrochloride]; 97.9

Then this compound:
Data request: What measured inhibition at 10 µM goes with CCCCCCCNc1c(-c2ccoc2)nc2cc(C)ccn12.Cl [Example 11, hydrochloride] ?
Data returned: 81.7

====

Target: vanilloid receptor (VR1) (Rattus norvegicus)
Construct: expressed in transfected cells; host or cells: CHO K1 cells (ECACC)
Assay: Functional investigations on vanilloid receptor (VR1): Ca2+ influx FLIPR assay in CHO K1 cells stably transfected with the VR1 gene
Type: cell-based, rats
Conditions: CHO-K1; method (b); 10 μM; 1–3 measurements; read-out: VR1 inhibition in rats (10 μM) [%]
Text: (b) Functional Investigations on Vanilloid Receptor (VR1) The agonistic or antagonistic action of the substances to be investigated on the vanilloid receptor (VR1) may be determined with the following assay. According to this assay, the influx of Ca^2+ through the channel is quantified with the assistance of a Ca^2+-sensitive dye (type Fluo4, Molecular Probes Europe BV, Leiden, Netherlands) in a Fluorescent Imaging Plate Reader (FLIPR, Molecular Devices, Sunnyvale, USA). […]
Where a name gives a salt, the structure may show the parent alone.
# maps each entry to its inhibition at 10 µM
Output spec: scalar in %, unitless text.

CCCCCCCCNc1c(-c2ccoc2)nc2cc(C)ccn12.Cl [Example 12, hydrochloride]; 84.6
CCCCCC(C)(C)Nc1c(-c2ccsc2)nc2cc(C)ccn12.Cl [Example 17, hydrochloride]; 97.5
CCCCCCC(C)(C)Nc1c(-c2ccoc2)nc2cc(C)ccn12.Cl [Example 15, hydrochloride]; 92.5
CCCCCC(C)(C)Nc1c(-c2ccncc2)nc2cc(C)ccn12 [Example 26, hydrochloride]; 32.1
CCCCCC(C)(C)Nc1c(-c2ccoc2)nc2ccccn12 [Example 7, hydrochloride]; 46
CCCCCCC(C)(C)Nc1c(-c2ccsc2)nc2cc(C)ccn12.Cl [Example 18, hydrochloride]; 62.8
CCCCCC(C)(C)Nc1c(-c2ccoc2)nc2ccc(C)cn12 [Example 28, hydrochloride]; 36.6

Data request: Look up inhibition at 10 µM: CCCCCCCCNc1c(-c2ccoc2)nc2ccc(C)cn12 [Example 27, hydrochloride]
Data returned: 61.1

Where do the numbers come from? From patent US7592351B2.
